Listed here are compounds together with their documented pIC50.
# target of assay: Recombinant human MAO-B (Homo sapiens (Human), UniProt P27338)
# Sequence (P27338 whole entry): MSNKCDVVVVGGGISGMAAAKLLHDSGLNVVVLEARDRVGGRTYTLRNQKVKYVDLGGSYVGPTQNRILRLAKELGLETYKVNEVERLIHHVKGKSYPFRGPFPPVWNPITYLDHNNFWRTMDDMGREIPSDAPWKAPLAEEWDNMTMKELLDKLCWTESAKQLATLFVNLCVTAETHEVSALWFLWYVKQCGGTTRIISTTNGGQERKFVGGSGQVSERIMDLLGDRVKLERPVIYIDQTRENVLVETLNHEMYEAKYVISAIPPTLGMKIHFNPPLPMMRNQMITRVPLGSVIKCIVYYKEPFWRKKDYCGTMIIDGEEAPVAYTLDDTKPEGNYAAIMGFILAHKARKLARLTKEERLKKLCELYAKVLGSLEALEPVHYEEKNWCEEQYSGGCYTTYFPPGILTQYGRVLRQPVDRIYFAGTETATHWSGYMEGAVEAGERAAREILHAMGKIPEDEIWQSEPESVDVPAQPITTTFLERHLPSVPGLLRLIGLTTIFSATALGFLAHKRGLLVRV
# procedure details: Inhibition of human recombinant MAO-B
# applied conditions: benzylamine 100 μM
pIC50: −log10 of the molar value. Structures can show the parent of a compound that is named as a salt.
recorded metric: pIC50

[
  {
    "compound": "CN(C)S(=O)(=O)c1cccc(-c2c(Cl)n(C/C(F)=C/CN)c3cccnc23)c1",
    "target of assay": "Recombinant human MAO-B (Homo sapiens (Human), UniProt P27338)",
    "recorded metric": "pIC50",
    "result": "< 5.52"
  },
  {
    "compound": "CN(C)S(=O)(=O)c1cccc(-c2c(Cl)n(C/C(F)=C/CN)c3ccc(S(C)(=O)=O)cc23)c1",
    "target of assay": "Recombinant human MAO-B (Homo sapiens (Human), UniProt P27338)",
    "recorded metric": "pIC50",
    "result": "< 5.52"
  },
  {
    "compound": "Cc1c(-c2ccncc2)c2cc(Cl)ccc2n1C/C(F)=C/CN",
    "target of assay": "Recombinant human MAO-B (Homo sapiens (Human), UniProt P27338)",
    "recorded metric": "pIC50",
    "result": "< 5.52"
  },
  {
    "compound": "Cc1c(-c2cncc(S(=O)(=O)N(C)C)c2)c2cc(Cl)ccc2n1C/C(F)=C/CN",
    "target of assay": "Recombinant human MAO-B (Homo sapiens (Human), UniProt P27338)",
    "recorded metric": "pIC50",
    "result": "< 5.52"
  },
  {
    "compound": "Cc1c(-c2cccc(S(=O)(=O)N(C)C)c2)c2nc(C(C)(F)F)ccc2n1C/C(F)=C/CN [Compound 111, Dihydrochloride]",
    "target of assay": "Recombinant human MAO-B (Homo sapiens (Human), UniProt P27338)",
    "recorded metric": "pIC50",
    "result": "< 5.52"
  },
  {
    "compound": "Cc1c(-c2cncnc2)c2cc(Cl)ccc2n1C/C(F)=C/CN",
    "target of assay": "Recombinant human MAO-B (Homo sapiens (Human), UniProt P27338)",
    "recorded metric": "pIC50",
    "result": "< 5.52"
  },
  {
    "compound": "Cc1c(-c2cccc(S(=O)(=O)N(C)C)c2)c2cc(S(C)(=O)=O)ccc2n1C/C(F)=C/CN",
    "target of assay": "Recombinant human MAO-B (Homo sapiens (Human), UniProt P27338)",
    "recorded metric": "pIC50",
    "result": "< 5.52"
  },
  {
    "compound": "CCOC(=O)c1ccc2c(c1)c(-c1cccc(S(C)(=O)=O)c1)c(C)n2C/C(F)=C/CN",
    "target of assay": "Recombinant human MAO-B (Homo sapiens (Human), UniProt P27338)",
    "recorded metric": "pIC50",
    "result": "< 5.52"
  },
  {
    "compound": "CCOC(=O)c1ccc2c(c1)c(-c1cccc(C(=O)N(C)C)c1)c(C)n2C/C(F)=C/CN [Compound 15, Hydrochloride]",
    "target of assay": "Recombinant human MAO-B (Homo sapiens (Human), UniProt P27338)",
    "recorded metric": "pIC50",
    "result": "< 5.52"
  },
  {
    "compound": "Cc1c(-c2cccc(S(=O)(=O)N(C)C)c2)c2nc(N(C)C)ccc2n1C/C(F)=C/CN [Compound 105, Dihydrochloride]",
    "target of assay": "Recombinant human MAO-B (Homo sapiens (Human), UniProt P27338)",
    "recorded metric": "pIC50",
    "result": "< 5.52"
  },
  {
    "compound": "Cc1c(-c2cccc(S(=O)(=O)N(C)C)c2)c2cc(C#N)ccc2n1C/C(F)=C/CN",
    "target of assay": "Recombinant human MAO-B (Homo sapiens (Human), UniProt P27338)",
    "recorded metric": "pIC50",
    "result": "< 5.52"
  },
  {
    "compound": "Cc1c(-c2cccc(S(=O)(=O)N(C)C)c2)c2ccc(C(=O)N(C)C)cc2n1C/C(F)=C/CN",
    "target of assay": "Recombinant human MAO-B (Homo sapiens (Human), UniProt P27338)",
    "recorded metric": "pIC50",
    "result": "< 5.52"
  },
  {
    "compound": "CCOC(=O)c1ccc2c(c1)c(-c1ccc(F)cc1)c(C)n2C/C(F)=C/CN",
    "target of assay": "Recombinant human MAO-B (Homo sapiens (Human), UniProt P27338)",
    "recorded metric": "pIC50",
    "result": "< 5.52"
  },
  {
    "compound": "Cc1c(-c2cncc(S(=O)(=O)N(C)C)c2)c2cc(F)ccc2n1C/C(F)=C/CN",
    "target of assay": "Recombinant human MAO-B (Homo sapiens (Human), UniProt P27338)",
    "recorded metric": "pIC50",
    "result": "< 5.52"
  },
  {
    "compound": "Cc1c(-c2cncc(S(=O)(=O)N(C)C)c2)c2ccc(Cl)cc2n1C/C(F)=C/CN [Compound 67, Dihydrochloride]",
    "target of assay": "Recombinant human MAO-B (Homo sapiens (Human), UniProt P27338)",
    "recorded metric": "pIC50",
    "result": "< 5.52"
  },
  {
    "compound": "Cc1c(-c2cncc(S(=O)(=O)N(C)C)c2)c2ncc(Cl)cc2n1C/C(F)=C/CN",
    "target of assay": "Recombinant human MAO-B (Homo sapiens (Human), UniProt P27338)",
    "recorded metric": "pIC50",
    "result": "< 5.52"
  },
  {
    "compound": "Cc1c(-c2cccc(S(=O)(=O)N(C)C)c2)c2cc(O)ccc2n1C/C(F)=C/CN",
    "target of assay": "Recombinant human MAO-B (Homo sapiens (Human), UniProt P27338)",
    "recorded metric": "pIC50",
    "result": "< 5.52"
  },
  {
    "compound": "Cc1c(-c2cccc(S(=O)(=O)N(C)C)c2)c2nc(C(=O)N(C)C)ccc2n1C/C(F)=C/CN",
    "target of assay": "Recombinant human MAO-B (Homo sapiens (Human), UniProt P27338)",
    "recorded metric": "pIC50",
    "result": "< 5.52"
  },
  {
    "compound": "Cc1c(-c2cccc(S(=O)(=O)N(C)C)c2)c2cc(C(F)F)ccc2n1C/C(F)=C/CN",
    "target of assay": "Recombinant human MAO-B (Homo sapiens (Human), UniProt P27338)",
    "recorded metric": "pIC50",
    "result": "< 5.52"
  },
  {
    "compound": "Cc1c(-c2cncc(S(=O)(=O)N(C)C)c2)c2cc(C(=O)O)ccc2n1C/C(F)=C/CN",
    "target of assay": "Recombinant human MAO-B (Homo sapiens (Human), UniProt P27338)",
    "recorded metric": "pIC50",
    "result": "< 5.52"
  },
  {
    "compound": "CN(C)S(=O)(=O)c1cncc(-c2cn(C/C(F)=C/CN)c3ccc(Cl)cc23)c1",
    "target of assay": "Recombinant human MAO-B (Homo sapiens (Human), UniProt P27338)",
    "recorded metric": "pIC50",
    "result": "< 5.52"
  },
  {
    "compound": "Cc1c(-c2cccc(S(=O)(=O)N(C)C)c2)c2nc(C(=O)NC(C)C)ccc2n1C/C(F)=C/CN",
    "target of assay": "Recombinant human MAO-B (Homo sapiens (Human), UniProt P27338)",
    "recorded metric": "pIC50",
    "result": "< 5.52"
  },
  {
    "compound": "COc1ccc2c(n1)c(-c1cccc(S(=O)(=O)N(C)C)c1)c(C)n2C/C(F)=C/CN [Compound 61, Dihydrochloride]",
    "target of assay": "Recombinant human MAO-B (Homo sapiens (Human), UniProt P27338)",
    "recorded metric": "pIC50",
    "result": "< 5.52"
  },
  {
    "compound": "Cc1c(-c2cccc(N(C)S(C)(=O)=O)c2)c2cc(C(=O)O)ccc2n1C/C(F)=C/CN",
    "target of assay": "Recombinant human MAO-B (Homo sapiens (Human), UniProt P27338)",
    "recorded metric": "pIC50",
    "result": "< 5.52"
  },
  {
    "compound": "N#CCCN [BAPN, β-aminopropionitrile, reference compound]",
    "target of assay": "Recombinant human MAO-B (Homo sapiens (Human), UniProt P27338)",
    "recorded metric": "pIC50",
    "result": "< 5.52"
  },
  {
    "compound": "CNS(=O)(=O)c1cncc(-c2c(C)n(C/C(F)=C/CN)c3ccc(Cl)cc23)c1",
    "target of assay": "Recombinant human MAO-B (Homo sapiens (Human), UniProt P27338)",
    "recorded metric": "pIC50",
    "result": "< 5.52"
  },
  {
    "compound": "Cc1c(-c2cccc(N(C)S(C)(=O)=O)c2)c2cc(C(=O)N(C)C)ccc2n1C/C(F)=C/CN",
    "target of assay": "Recombinant human MAO-B (Homo sapiens (Human), UniProt P27338)",
    "recorded metric": "pIC50",
    "result": "< 5.52"
  },
  {
    "compound": "Cc1c(-c2cncc(S(=O)(=O)N(C)C)c2)c2cc(C(=O)N(C)C)ccc2n1C/C(F)=C/CN",
    "target of assay": "Recombinant human MAO-B (Homo sapiens (Human), UniProt P27338)",
    "recorded metric": "pIC50",
    "result": "< 5.52"
  },
  {
    "compound": "Cc1c(-c2cccc(S(=O)(=O)N(C)C)c2)c2cc(C(=O)O)ccc2n1C/C(F)=C/CN",
    "target of assay": "Recombinant human MAO-B (Homo sapiens (Human), UniProt P27338)",
    "recorded metric": "pIC50",
    "result": "< 5.52"
  },
  {
    "compound": "Cc1c(-c2cccc(S(=O)(=O)N(C)C)c2)c2nc(C(F)(F)F)ccc2n1C/C(F)=C/CN",
    "target of assay": "Recombinant human MAO-B (Homo sapiens (Human), UniProt P27338)",
    "recorded metric": "pIC50",
    "result": "< 5.52"
  },
  {
    "compound": "Cc1c(-c2ccncc2)c2cc(C(=O)NC(C)(C)C)ccc2n1C/C(F)=C/CN",
    "target of assay": "Recombinant human MAO-B (Homo sapiens (Human), UniProt P27338)",
    "recorded metric": "pIC50",
    "result": "< 5.52"
  }
]
